# Method: folding enthalpy; higher = less favourable; fluorescence melt of hairpins on a sequencing array, two-state fit
# Condition label: sodium 0.088 M
Reported endpoint: folding enthalpy (kJ/mol)
Write down the numeric answer in kJ/mol and omit the unit.

# query: folding enthalpy of entry GCAAAGGGAAACCTTTAC (.(((((....))))).)
-66.2

Next up: GCGAGATTTCGC ((((....))))
-84.2

Next up: GAAGGACGAAAGTCTTTC (((.(((....))).)))
-105

Next up: GACAAGGAAACTTGTC ((((((....))))))
-183

Next up: GGGGCCGAAAGGCTACCC ((((((....)))..)))
-61.8

Next up: GCGACCTATCGC ((((....))))
-119

Next up: GATCTATGGTAGATC ((((((...))))))
-121

Next up: GATCGGATTACCGATC ((((((....))))))
-162

Next up: GTAAGTGGAAACACTCAC ((.((((....)))).))
-64.6

Next up: GATCAGCCTGCTGATC ((((((....))))))
-174

Next up: GGCAGCGAAAGCTCTGCC ((((((....)))..)))
-102

Next up: GGGTTCCGAAAGGATCCC (((.(((....))).)))
-176

Next up: GGATTCGAAAGAATATCC ((((((....)))..)))
-41.7

Next up: GTGGTGCGAAAGCACAC (((.(((....))))))
-48.2

Next up: GCTAGGCGAAAGCTTAGC ((((.((....)).))))
-130

Next up: GATCGTTTTTACGATC ((((((....))))))
-187

Next up: AGAACGAAAGTTCT (((((....)))))
-83.2

Next up: GATCCCTACCGGGATC ((((((....))))))
-137

Next up: GATCAGGCAACTGATC ((((((....))))))
-157

Next up: GCGAGCCCGAAAGGGCGC (((..(((....))))))
-30.9

Next up: GCCCCCTCGAAAGAGGGC (((..(((....))))))
-25.1

Next up: GATCGCCGGGCGATC ((((((...))))))
-130

Next up: GATCCAATATGGATC ((((((...))))))
-162

Next up: GAATGTGGAAACATATTC ((((.((....)).))))
-139

Next up: GATCATCTCATGATC ((((((...))))))
-158

Next up: GGCCTAGGAAACTAGGCC (((((((....)))))))
-137

* * *

# Method: melting temperature; fluorescence melt of hairpins on a sequencing array, two-state fit, raised by 9.35 °C to match UV melts
# Condition label: sodium 0.088 M
So I've got a bunch of sequences here, and I need their Tm values.
Write down the numeric answer in °C and omit the unit.

# query: Tm of entry GATCCCGGAGGGGATC ((((((....))))))
65.8

Next up: GCGGCCCCCCGC ((((....))))
55

Next up: GCCCACGAAAGTGCAGGC ((((((....)))..)))
50.1

Next up: GATTTCGAAAGAAATC ((((((....))))))
55

Next up: GCCTGGCGAAAGCTCGGC (((..((....))..)))
55.9

Next up: GGAGTGAAAACTCC (((((....)))))
54.8

Next up: GGAAGCGGAAACGCTTTC (.(((((....))))).)
53.7
